# ASSAY OVERVIEW: chemical genetic growth profiling, strain panel (AID 1159580);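 note: tested at 20 µM; growth read once vehicle control cultures reached saturation at 30 °C; 1 = growth at the plate median or of vehicle wells; lower values mean less growth of the strain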
# STATED CONDITIONS: S. cerevisiae deletion strains, growth OD, locus YOL147C, strain pex11, hits give low values
The campaign covered roughly 5,500 compounds. About 2,000 (36%) were called active. Roughly 18% stayed inconclusive and do not appear here. Some of the results follow.
READOUT: normalized growth

>>> reported_result("COc1cc(-c2coc3cc(OCc4ccccc4)c(OC)c(O)c3c2=O)cc(O)c1OC")
"0.955 (inactive)"
>>> reported_result("O=C(Cn1ccnc1[N+](=O)[O-])NCCO")
"1.01 (inactive)"
>>> reported_result("COc1ccc([C@H]2Oc3cc(OC)cc(OC)c3C[C@H]2O)cc1")
"0.994 (inactive)"

Just so you know, measured normalized growth for COc1cc(-c2coc3cc(OCc4ccccc4)c(OC)c(O)c3c2=O)cc(OCc2ccccc2)c1OC came out at 0.989 (inactive)

Just so you know, measured normalized growth for COc1cc(-c2coc3cc(OC)c(OC)c(OC)c3c2=O)cc(OC)c1OC came out at 0.998 (inactive)
